Data credit: PubChem BioAssay (NCI)

- System: TK-10 renal
- METHOD_NOTES: NCI tumour cell line growth inhibition, 48 h
OBSERVATION_TYPE: TGI

Example cases with answers are listed next.
O=C1C(c2ccccc2)=[N+]([O-])c2ccccc21 = 37.4 µM
CCOc1cccc(/C=N/NC(=O)C(=O)Nc2cccc(C(F)(F)F)c2)c1O = > 100 µM
CN(C)CCCNC(=O)c1cc(NC(=O)c2cc(NC(=O)CCCn3c4ccccc4c4ccccc43)cn2C)cn1C = 39.3 µM
O=C(OCCN=c1c2ccccc2ccc2ccccc12)c1ccccc1 = > 100 µM
O=[N+]([O-])c1ccc(NC(=S)N=Nc2c(O)[nH]c3ccc([N+](=O)[O-])cc23)cc1 = 56.7 µM
CC[C@]1(O)C(=O)OCc2c1cc1n(c2=O)Cc2cc3c(N)cccc3nc2-1 = > 100 µM

Report TGI for each item below.
1. COC(=O)C1(CCCCCBr)CCCCCCCCCCC1=O (stereo unspecified)
2. C/C(CCc1ccccc1)=N\NC(N)=S
3. C=C1N(C=O)C(C)(C)N(O)C1(C)C

Marked response:
1: > 100 µM; 2: > 100 µM; 3: > 100 µM

State recorded TGI for all listed compounds.
1. CN(C)CC1CCC/C1=N\O (stereo unspecified)
2. Cc1ccc2c(c1)-c1c(C#N)c(N)nc(-c3ccc(Cl)cc3)c1CCS2(=O)=O

Marked response:
> 100 µM
> 100 µM

###

Give measured TGI for each item. Keep answers brief.
- System: HOP-62 NSCLC
- METHOD_NOTES: NCI tumour cell line growth inhibition, 48 h

Here's what some known entries look like.
CN(C)/N=C(/c1nc2ccc(Cl)cc2[nH]c1=O)C(O)c1ccc(C(O)/C(=N\N(C)C)c2nc3ccc(Cl)cc3[nH]c2=O)cc1 (centres undefined) = > 100 µM
Cc1cc(C)c(S(=O)(=O)N(CCCN)OCCCON(CCCN)S(=O)(=O)c2c(C)cc(C)cc2C)c(C)c1 = 4.02 µM
CCP(=O)(OC)C1=CCN(C(=O)OCC[Si](C)(C)C)CC1 (centres undefined) = > 100 µM
COc1ccc(-c2ccc(-c3ccc(C(=N)N)cn3)o2)cc1 = 22.6 µM
O=C1c2cc(Cl)ccc2-c2c1c1ccc([N+](=O)[O-])cc1c(=O)n2CCCBr = 23 µM

Respectfully, I request TGI for each entry included below.
1. O=C(c1ccncc1)n1nc(-c2ccccc2)c(N=Nc2ccccc2[N+](=O)[O-])c1-c1ccccc1
2. COc1ccccc1C1Nn2c(nc3ccccc3c2=O)N1c1ccc(C)cc1 (centres undefined)
3. COC(=O)C(CC(=O)Nc1ccc(C)cc1)C(=O)C(=O)Nc1ccccc1C(C)C (centres undefined)
4. COc1cc(/C=C2\C(=O)Nc3ccc(N(C)C)cc32)cc(OC)c1OC
5. O=C1C=CC=C/C1=C1\N=C(c2ccccc2OCC(=O)c2ccccc2)SS1
6. NC(N)=NCCC1OC(=O)C2=C1c1c(O)ccc3nccc(c13)O2 (centres undefined)
7. CCC(CO)Nc1nc(NCc2ccccc2)c2ncn(C(C)C)c2n1 (centres undefined)
8. CCC1=C(C(C)=O)[C@@H]2CCCCC[C@@H](C(=O)OC)C2C1=O (some centres undefined)

Marked response:
["> 100 µM", "20.2 µM", "> 100 µM", "50.2 µM", "> 100 µM", "> 100 µM", "33.9 µM", "> 100 µM"]
